- Measured target: T1, human GIP receptor (human, UniProt P48546 22-466)
- T1 construct: whole, on cells; also called hGIPR
- T1 sequence (looked up): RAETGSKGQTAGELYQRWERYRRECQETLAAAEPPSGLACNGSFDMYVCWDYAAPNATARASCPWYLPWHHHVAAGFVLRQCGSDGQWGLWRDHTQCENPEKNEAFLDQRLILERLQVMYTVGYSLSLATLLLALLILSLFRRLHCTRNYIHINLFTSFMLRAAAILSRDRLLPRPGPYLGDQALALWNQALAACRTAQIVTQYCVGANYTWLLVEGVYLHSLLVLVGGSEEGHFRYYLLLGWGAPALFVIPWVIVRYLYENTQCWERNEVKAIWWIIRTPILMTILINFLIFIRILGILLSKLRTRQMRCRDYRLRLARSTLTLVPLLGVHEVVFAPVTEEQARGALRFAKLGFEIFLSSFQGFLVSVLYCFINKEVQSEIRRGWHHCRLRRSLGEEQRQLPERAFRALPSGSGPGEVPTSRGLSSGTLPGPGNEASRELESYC
- Test protocol: competition binding vs 125I-GIP(2-30)NH2, COS-7 cells transfected with human GIP receptor
pIC50: −log10 of the molar value. Ends that are not written are not given here.
Assay endpoint: pIC50

(P) FISDYSIAMDKIHQQDFVNWLLAQK-NH2 (also called human GIP(6-30)NH2; hGIP(6-30)) [GIP(6-30)NH2]
(Q) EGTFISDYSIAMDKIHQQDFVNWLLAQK-NH2 (also called human GIP(3-30)NH2; hGIP(3-30)NH2) [GIP(3-30)NH2]
Req: Recorded pIC50 values differ for P and Q ; which one is higher? Write the label of whichever entry you select.
Resp: Q
